- ASSAY: protein stability index of a GFP-peptide fusion (GPS, HEK-293T) (PSI 1-6); higher = more stable;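 note: 24-mer peptide tiles fused after GFP, lentivirally expressed, FACS-sorted into six equal bins by GFP/DsRed ratio, decoded by Illumina sequencing, PSI is the read-weighted mean bin number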
- MEASUREMENT SETUP: treatment: DMSO; c terminus: a fixed tail appended
Grouping by measured protein stability index is done with the following cut points: lower level (below 3), middle level (3 to below 4), upper level (4 or more)

Some entries whose results are on file:
LWFYNTSLKFFLNKPMLADVVFEI [RHOBTB3]; lower level
LAMLALLSPLSLAQYDSWPHYPEY [LOXL2]; middle level
HRHTSHLGHAVLPSNARGPILSRS [SPRY1]; middle level
QEITSETEDLCEKPDDEVKETAHD [RIPK4]; upper level
AFCALVHSFFPDAFDYNSLSPTQR [SMTNL2]; lower level
RDGRRDRYSSDTTPLLNGSSQDRM [GOSR1]; upper level

Into which bin does this sequence go? RVEEQAILDAMAEETRQKQLLADE [TRIM35]
upper level

Please do the same for SLSELLSQLDSGVSQAVEGPEELS [RIPK4] as well.
upper level

And for GFGSKNTAFCTHVFPETAFIAVTS [TBX5] ?
lower level

Queued: KQQKDPSEEAAVLQYASLVGQKCS [ATE1]
upper level

====

- ASSAY: protein stability index of a GFP-peptide fusion (GPS, HEK-293T) (PSI 1-6); higher = more stable
- MEASUREMENT SETUP: treatment: MLN4924 1 uM, 8 h; c terminus: a fixed tail appended
VALUE KIND: protein stability index
Simply state the number, no unit and no words.

Past entries and their recorded results:
PNRQLWIELAPLSMPRINHGVLSA [GAN]; 2.19
TPEKKAEEERDEEEDKRRKGEEVT [EPB41L3]; 5.75
EAQHGPHSAVARISRAQYNALTLT [STX11]; 3.47
CRIQDLCAMEDHNCEQLCVNVPGS [MATN2]; 2.77

Fill blank: measured protein stability index of the sequence SVMYRKWKESKGKDREYTDIIRKQ [CDC34] is ____.
3.76

Same again, this time with PGSTSPLETSGNPNGRYGSGYLLA [SLC6A17]
3.72

Another sequence: HESFFSLFSDPRSTRLTRIHLRED [ZER1]
3.14

Can you check YFKCVQKDIQPYMRRMVATWMLEV [CCND2] next?
2.4

Query HVMGLYPDLLPTDYRKQLQYPNPL [VPS39] next
2.59

====

Collected protein stability index values appear next to each entry.
- ASSAY: protein stability index of a GFP-peptide fusion (GPS, HEK-293T) (PSI 1-6); higher = more stable
- MEASUREMENT SETUP: treatment: DMSO; c terminus: a fixed tail appended
Answer field: number only, no words.

Look over these answered cases.
IYTEFPDETLRSGELLNMIVAVID [INTS3]; 2.14
LLMLENFIDGKFLPCSSYIDSYDP [ALDH8A1]; 1.97
VTKMFQKIQDLIDDKDALVFVLID [TRIP13]; 2.72

# get_value(readout='protein stability index', item= KGSPDVSASSDEPYARIQQSRRQC [SMIM2] )
4.74

// next record LRRPRPVQRTQSVPVRRPARRRQS [RASAL3]
4.99

Same thing, different sequence: MEEVISPRQVSYTPQHHEKQYAMQ [IQUB]
4.38

Moving on to the next sequence: TSPTRQHHVEREKDHSSSRPSSPR [BTBD10]
5.38
